protocol summary: Human HepG2 cell viability assay in 384 well format
Format: toxicity, cell-based
Set-up: dose 125 nL, time 70.5 hour; concentration not given beside the values
condition set: HepG2 cells, read-out: Inhibition
recorded metric: cytotoxicity at 70.5 h (%)
Field format: number, assumed %, no unit text.

Given the entry COc1ccc(CNC(Cn2cncn2)c2ccccc2)cc1O (configuration not stated) , report its measured cytotoxicity at 70.5 h.
-0.077

Given the entry Cc1cccc(-c2nnn3c2COC(CNS(=O)(=O)C2CC2)C3)c1 (configuration not stated) , report its measured cytotoxicity at 70.5 h.
-9.41

Given the entry COCCN1CCO[C@@H]2CN(C(=O)Cc3ccccc3)CC[C@@H]2C1 , report its measured cytotoxicity at 70.5 h.
-0.0515

Given the entry Cc1cnn(CCNCc2ccccc2C#N)c1 , report its measured cytotoxicity at 70.5 h.
13.2

Given the entry CN(C)C(=O)CCCn1ccc(NC(=O)NCc2cccc(F)c2)n1 , report its measured cytotoxicity at 70.5 h.
-16.5

Given the entry O=C(c1cnco1)N1CCC(Cc2cccc3ncccc23)CC1 , report its measured cytotoxicity at 70.5 h.
20.4

Given the entry CCCSc1ncccc1C(=O)NCc1ccc(N(C)C)cc1 , report its measured cytotoxicity at 70.5 h.
18.5

Given the entry Cc1cnc(N2CCC3(C2)CN(S(=O)(=O)C2CC2)C3)nc1 , report its measured cytotoxicity at 70.5 h.
-8.82

Given the entry COc1ccc(CC(=O)Nc2ccc3ncn(C)c(=O)c3c2)cc1 , report its measured cytotoxicity at 70.5 h.
-2.82

Given the entry c1ccc(OC2COC3(CCN(CC4CC4)CC3)C2)nc1 (configuration not stated) , report its measured cytotoxicity at 70.5 h.
2.65

Given the entry Cc1noc(NCc2cn(C)nc2-c2cccnc2)n1 , report its measured cytotoxicity at 70.5 h.
-12.1

Given the entry COCCCNC(=O)Nc1ncc(-c2cccc(OC)c2)n1CCOC , report its measured cytotoxicity at 70.5 h.
-17.4
